# Test system: DMS 114 small cell lung
# protocol.text: NCI tumour cell line growth inhibition, 48 h
assay.metric: TGI (µM)

INSERT INTO measurements (compound, unit_descriptor, relation_qualifier, result) VALUES
  ('CC(C)C(=O)N1Cc2cc(Cl)cc(Cl)c2OC(=O)c2ccccc21', 'µM', '=', 74),
  ('COC(=O)c1cc(C(=O)OC)c(CC(=O)C(=O)NC2C3CC4CC(C3)CC2C4)nc1CC(=O)C(=O)NC1C2CC3CC(C2)CC1C3 (stereo not given)', 'µM', '>', 100),
  ('COc1ccc(/C(=N\NC(=O)NN)C(c2ccc(OC)cc2)C2(O)C(=O)Nc3c(Cl)cc(Cl)cc32)cc1 (stereo not given)', 'µM', '>', 100),
  ('COC(OC)c1cc2c(cc1C=O)OCO2', 'µM', '>', 100),
  ('COc1cc2c(c(OC)c1OC)-c1ccc(SC)c(=O)cc1C(CC(=O)Oc1cccc([N+](=O)[O-])c1)C2 (stereo not given)', 'µM', '=', 3.95);
